Target: T1, biotinylated CRH (human and mouse, UniProt P01143 145-185 (rat entry), not fully specified; biotin; which end is not stated for the result (NT-biotin and CT-biotin forms were used))
T1 construct: also called biotin-CRH; CRH (NT biotin)
T1 peptide: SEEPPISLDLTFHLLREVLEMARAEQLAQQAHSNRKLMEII
Assay: ELISA, CRH (NT biotin)
assay_metric: binding result

PR006148 (antibody, human IgG1, kappa, V domains shown) VH: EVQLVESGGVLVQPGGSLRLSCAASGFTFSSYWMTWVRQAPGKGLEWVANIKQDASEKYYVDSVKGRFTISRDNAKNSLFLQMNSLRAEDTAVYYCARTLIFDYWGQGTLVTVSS VL: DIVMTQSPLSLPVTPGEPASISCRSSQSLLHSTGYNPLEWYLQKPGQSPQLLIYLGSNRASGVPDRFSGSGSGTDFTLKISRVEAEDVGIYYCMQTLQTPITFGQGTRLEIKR = binds
PR006147 (antibody, human IgG1, kappa, V domains shown) VH: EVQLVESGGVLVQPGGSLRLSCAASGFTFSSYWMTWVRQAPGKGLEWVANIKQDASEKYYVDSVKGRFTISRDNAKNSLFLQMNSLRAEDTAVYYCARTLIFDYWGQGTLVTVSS VL: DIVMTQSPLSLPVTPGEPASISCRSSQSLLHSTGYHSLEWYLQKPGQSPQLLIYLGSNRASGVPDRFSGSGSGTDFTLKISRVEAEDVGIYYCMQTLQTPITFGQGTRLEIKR = binds
PR006142 (antibody, human IgG1, kappa, V domains shown) VH: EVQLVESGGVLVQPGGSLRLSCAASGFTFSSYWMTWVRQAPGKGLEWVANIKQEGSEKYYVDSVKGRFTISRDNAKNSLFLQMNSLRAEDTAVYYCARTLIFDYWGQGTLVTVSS VL: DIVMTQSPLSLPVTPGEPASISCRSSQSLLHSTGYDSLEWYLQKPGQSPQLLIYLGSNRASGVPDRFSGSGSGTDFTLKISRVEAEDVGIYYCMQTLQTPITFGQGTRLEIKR = binds
